Tested on: Pseudomonas aeruginosa
assay-details: Antibacterial activity against Pseudomonas aeruginosa strain 27853
Assay type: functional
outcome-measure: MIC (µg/mL)
All answers are understood in µg/mL, so give the number only.

# input Read the entry "N[C@H]1CN(c2nc3c(cc2F)c(=O)c(C(=O)O)cn3-c2ccc(O)cc2)CC12CC2" and write its reported MIC.
# output 0.78

# input Give me measured MIC, please, for this compound: "C[C@@H](N)[C@H]1CCN(c2nc3c(cc2F)c(=O)c(C(=O)O)cn3-c2ccc(O)cc2)C1"
# output 12.5

# input Please give the documented MIC of "O=C(O)c1cn(-c2ccc(O)cc2)c2cc(N3CCNCC3)c(F)cc2c1=O"
# output 1.56

# input Complete the entry with MIC for "COc1c(N2C[C@@H]3[C@@H](N)[C@@H]3C2)c(F)cc2c(=O)c(C(=O)O)cn(-c3ccc(O)cc3)c12"
# output 1.56

# input Please indicate MIC recorded for NCC1CCN(c2cc3c(cc2F)c(=O)c(C(=O)O)cn3-c2ccc(O)cc2)C1 (stereo not given)
# output 25
